Taken from patent US9884063B2.

Molecular target: TNKS2 (Homo sapiens)
Sequence (Q9H2K2 whole entry): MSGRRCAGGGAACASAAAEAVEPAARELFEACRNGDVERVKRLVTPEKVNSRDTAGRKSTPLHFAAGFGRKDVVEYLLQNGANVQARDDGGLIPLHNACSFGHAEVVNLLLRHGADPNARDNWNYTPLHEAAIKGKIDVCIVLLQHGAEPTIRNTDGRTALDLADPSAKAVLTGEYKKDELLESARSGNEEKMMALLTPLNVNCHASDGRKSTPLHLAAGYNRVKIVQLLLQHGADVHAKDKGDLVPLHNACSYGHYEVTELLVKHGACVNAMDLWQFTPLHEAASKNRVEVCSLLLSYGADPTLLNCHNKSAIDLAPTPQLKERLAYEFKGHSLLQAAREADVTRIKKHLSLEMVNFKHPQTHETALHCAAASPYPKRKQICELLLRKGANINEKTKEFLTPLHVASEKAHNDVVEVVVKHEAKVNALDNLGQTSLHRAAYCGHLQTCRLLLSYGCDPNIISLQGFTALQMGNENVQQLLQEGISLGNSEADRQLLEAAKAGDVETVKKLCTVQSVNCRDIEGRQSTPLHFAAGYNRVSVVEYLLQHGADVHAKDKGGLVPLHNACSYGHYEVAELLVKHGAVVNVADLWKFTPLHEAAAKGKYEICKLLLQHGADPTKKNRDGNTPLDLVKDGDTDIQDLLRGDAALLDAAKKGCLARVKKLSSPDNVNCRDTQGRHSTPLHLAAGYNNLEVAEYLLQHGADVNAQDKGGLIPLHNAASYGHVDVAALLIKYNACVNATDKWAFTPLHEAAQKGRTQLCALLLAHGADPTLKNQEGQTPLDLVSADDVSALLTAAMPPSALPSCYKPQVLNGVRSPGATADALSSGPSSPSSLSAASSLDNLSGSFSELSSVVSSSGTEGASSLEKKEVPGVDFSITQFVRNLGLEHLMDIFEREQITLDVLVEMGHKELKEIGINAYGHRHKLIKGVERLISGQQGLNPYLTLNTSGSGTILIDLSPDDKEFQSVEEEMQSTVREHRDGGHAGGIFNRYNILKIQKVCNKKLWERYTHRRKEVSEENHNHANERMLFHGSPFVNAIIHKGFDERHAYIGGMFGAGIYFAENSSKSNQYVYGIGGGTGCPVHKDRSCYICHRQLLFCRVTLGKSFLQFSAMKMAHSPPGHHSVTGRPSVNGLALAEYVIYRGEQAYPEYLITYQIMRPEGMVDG
Experiment: Modified TNKS2 Assay 2 (auto-parsylation, [3H]-NAD+ SPA)
Assay type: biochemical
Details: 6 nM TNKS2, 96 well
Measured Parameter: pIC50
// returns pIC50 (minus log10 of molar concentration), number only

[[record]]
molecule = "CN1CCCC(CNC(=O)c2[nH]cnc2C(=O)Nc2ccc(NC(=O)c3ccc(F)cc3Cl)cc2)C1 (centres unmarked) [Example 298]"
assay_value = 7.22

[[record]]
molecule = "CNC(=O)c1nc[nH]c1C(=O)Nc1ccc(NC(=O)c2cc(F)c(F)cc2C)cc1 [Example 377]"
assay_value = 6.48

[[record]]
molecule = "CCOc1ccc(C(=O)Nc2ccc(NC(=O)c3[nH]cnc3C(=O)NC)cc2)c(Cl)c1 [Example 250]"
assay_value = 6.66

[[record]]
molecule = "O=C(Nc1ccc(NC(=O)c2nc[nH]c2C(=O)NCCF)cc1)c1ccc(F)cc1Cl [Example 173]"
assay_value = 7.30

[[record]]
molecule = "CNC(=O)c1nc[nH]c1C(=O)Nc1ccc(NC(=O)c2cc(OC)ccc2Cl)cc1 [Example 248]"
assay_value = 6.32


Let us move to another entry and its pIC50.
Specify reported pIC50 for the molecule shown: CNC(=O)c1nc[nH]c1C(=O)Nc1ccc(NC(=O)c2ccc(F)cc2Cl)c(OC)c1 [Example 95]
6.33
